System: NOMO1
Test: cell viability relative to DMSO control; higher = less cytotoxic
Details: RPMI 5 mM glucose + 10% dialyzed FBS; 48 h; 5.12 µM
Catalogue of cell viability values
Value expressed in %; do not type the unit.

[
  {
    "MOLECULE": "COC1=C(N2CCNC(C)C2)C(=CC3=C1N(\\C=C(C(O)=O)/C3=O)C4CC4)F (stereo not given)",
    "SUBJECT_OF_TEST": "NOMO1",
    "ASSAY_RESULT": 74.2
  },
  {
    "MOLECULE": "C/C=C1\\NC(=O)[C@H]2CSSCC/C=C\\[C@H](CC(=O)N[C@H](C(C)C)C(=O)N2)OC(=O)[C@H](C(C)C)NC1=O",
    "SUBJECT_OF_TEST": "NOMO1",
    "ASSAY_RESULT": 3.86
  },
  {
    "MOLECULE": "CN1[C@@H]2CC(OC(=O)[C@@H](CO)c3ccccc3)C[C@H]1[C@H]1O[C@H]12 (stereo not given in full)",
    "SUBJECT_OF_TEST": "NOMO1",
    "ASSAY_RESULT": 88.2
  },
  {
    "MOLECULE": "Cc1nc(NC(=O)N2CCC[C@H]2C(N)=O)sc1-c1ccnc(C(C)(C)C(F)(F)F)c1",
    "SUBJECT_OF_TEST": "NOMO1",
    "ASSAY_RESULT": 48.3
  }
]

Note: attention shifts to another entry.
In: Return cell viability for the following molecule: O=C([O-])C(O)Cc1ccc(O)c(O)c1 (stereo not given)
Out: 81.4
